- targetOrTestSystem: Torsin-1A (Homo sapiens)
- assayOverview: small-molecule binders of mutant TOR1A in lysate, primary screen, cell lysate, small-molecule microarray, COS7 lysate, 635/667 nm fluorescence (AID 1150);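 further: score pools 667 nm emission and signal to noise measuring lysate protein binding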
- cond: COS7 hTOR1A mutant lysate, 635 nm fluorescence, higher = more signal
I would appreciate it if you labelled entries yes (1) when composite z-score is 0.3 or higher, otherwise no (0).

# count of solved cases: 2
structureSmilesString | groupLabel
COc1cc([C@@H]2N[C@H](C(=O)O)Cc3c2[nH]c2ccccc32)cc(OC)c1OC | no (0)
CC(C)CNC(=O)[C@@]1(C)c2ccccc2C(=O)N(Cc2ccc(OC(F)(F)F)cc2)[C@H]1c1ccc(CO)cc1 | yes (1)

Exercise: Could you tell me if the measured composite z-score of `O=C1O[C@@H](c2ccccc2)[C@@H](c2ccccc2)N2[C@@H](c3ccc(OCCO)cc3)[C@]3(C(=O)Nc4ccc(C#CCCO)cc43)[C@@H](C(=O)N3CCN(c4ncccn4)CC3)[C@H]12` reaches 0.3 or more?
Key: yes (1)

Exercise: Reported composite z-score at or above 0.3? `COCCCNC(=O)[C@@]1(Sc2ccc(C)cc2)CC(=O)N(Cc2cc(C(F)(F)F)cc(C(F)(F)F)c2)[C@@H]1c1ccc(CO)cc1I`
Key: no (0)

Exercise: API: above_or_equal(metric=composite z-score, cutoff=0.3) for item `C=CCN1C(=O)[C@@]2(O[C@@H](CCn3cc([C@H](O)c4ccccc4)nn3)[C@H]([Si](C)(C)c3ccc(OC)cc3)[C@H]2C)c2cc(N3CCOC3=O)ccc21`
Key: yes (1)

Exercise: Is composite z-score for `CCN1C(C)=C(C(=O)OC)[C@@H](c2ccccc2)N2C(=O)[C@@]3(C(=O)OC)O[C@@]12[C@@H]1C(=O)N(C)C(=O)[C@@H]13` at or above 0.3?
Key: yes (1)
